// inhibition at 1 µM lookup, one value per entry
target: human recombinant serotonin (5-Hydroxytryptamine) 5-HT2A receptor (Homo sapiens, UniProt P28223); construct: expressed in transfected cells; host or cells: CHO-K1 cells; test: Serotonin 5-HT2A radioligand binding ([3H]Ketanserin); conditions: compound at 1 μM; read-out: Serotonin (1 μM) 5-HT2A, percent inhibition of specific binding
Sequence (P28223 whole entry): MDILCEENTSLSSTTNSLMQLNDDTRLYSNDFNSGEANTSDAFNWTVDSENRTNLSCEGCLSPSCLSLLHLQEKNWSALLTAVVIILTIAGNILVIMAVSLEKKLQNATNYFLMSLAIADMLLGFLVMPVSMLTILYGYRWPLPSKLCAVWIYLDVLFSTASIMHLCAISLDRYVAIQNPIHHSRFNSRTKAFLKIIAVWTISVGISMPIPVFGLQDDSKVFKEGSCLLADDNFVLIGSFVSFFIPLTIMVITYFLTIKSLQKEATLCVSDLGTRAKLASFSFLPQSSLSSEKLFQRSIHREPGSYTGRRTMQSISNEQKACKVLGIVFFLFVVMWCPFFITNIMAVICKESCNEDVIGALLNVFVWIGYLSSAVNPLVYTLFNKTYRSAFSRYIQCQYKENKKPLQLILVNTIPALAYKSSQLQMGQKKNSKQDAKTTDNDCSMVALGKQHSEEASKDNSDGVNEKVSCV

# compound, inhibition at 1 µM [%]
data = [
    ("CN1CCc2c(n(CC(O)c3ccc(Cl)cc3)c3ccc(Cl)cc23)CC1 (stereo not drawn) [Compound No. 16]", 101),
    ("Cc1ccc2c(c1)c1c(n2CCc2ccc(C(F)(F)F)nc2)CCN(C)CC1 [Compound No. 20]", 95),
    ("CN1CCc2c(n(CC(=O)N3CCCC3)c3ccc(Cl)cc23)CC1 [Compound No. 53]", 41),
    ("CN1CCc2c(n(CCc3ccccn3)c3ccc(Cl)cc23)CC1 [Compound No. 8]", 97),
    ("Cc1ccc(C(O)Cn2c3c(c4cc(Cl)ccc42)CCN(C)CC3)cc1 (stereo not drawn) [Compound No. 26]", 100),
    ("C/C(=C/n1c2c(c3cc(Cl)ccc31)CCN(C)CC2)c1ccccc1F [Compound No. 242]", 99),
    ("COc1ccc(/C(C)=C/n2c3c(c4cc(C)ccc42)CCN(C)CC3)cc1F [Compound No. 179]", 98),
    ("Cc1ccc2c(c1)c1c(n2CCc2ccc(Cl)cc2)CCN(C)CC1 [Compound No. 28]", 100),
    ("COc1ccc(C#Cn2c3c(c4cc(C)ccc42)CCN(C)CC3)cc1F [Compound No. 284]", 94),
    ("Cc1ccc2c(c1)c1c(n2CCc2ccccc2F)CCN(C)CC1 [Compound No. 63]", 91),
    ("Cc1ccc2c(c1)c1c(n2/C=C/c2ccc(Cl)cc2)CCN(C)CC1 [Compound No. 235]", 102),
    ("COc1ccc(/C(C)=C/n2c3c(c4cc(C)ccc42)CCN(C)CC3)cc1 [Compound No. 182]", 101),
    ("C/C(=C\\n1c2c(c3cc(C)ccc31)CCN(C)CC2)c1ccc(F)cc1 [Compound No. 34]", 98),
    ("Cc1ccc2c(c1)c1c(n2/C=C/c2ccccc2F)CCN(C)CC1 [Compound No. 233]", 102),
    ("CN1CCc2c(n(CC(=O)Nc3ccc(F)cc3)c3ccc(Cl)cc23)CC1 [Compound No. 37]", 91),
    ("CN1CCc2c(n(CC(O)c3cccnc3)c3ccc(Cl)cc23)CC1 (stereo not drawn) [Compound No. 18]", 88),
    ("Cc1ccc2c(c1)c1c(n2CC(C)(O)c2ccc(F)cc2)CCN(C)CC1 (stereo not drawn) [Compound No. 14]", 101),
    ("COc1ccc(/C(C)=C/n2c3c(c4cc(Cl)ccc42)CCN(C)CC3)cc1 [Compound No. 160]", 94),
]
